target: recombinant human PAD2 (human, UniProt Q9Y2J8 1-665); test: cell-based or functional assay
Sequence (Q9Y2J8 whole entry): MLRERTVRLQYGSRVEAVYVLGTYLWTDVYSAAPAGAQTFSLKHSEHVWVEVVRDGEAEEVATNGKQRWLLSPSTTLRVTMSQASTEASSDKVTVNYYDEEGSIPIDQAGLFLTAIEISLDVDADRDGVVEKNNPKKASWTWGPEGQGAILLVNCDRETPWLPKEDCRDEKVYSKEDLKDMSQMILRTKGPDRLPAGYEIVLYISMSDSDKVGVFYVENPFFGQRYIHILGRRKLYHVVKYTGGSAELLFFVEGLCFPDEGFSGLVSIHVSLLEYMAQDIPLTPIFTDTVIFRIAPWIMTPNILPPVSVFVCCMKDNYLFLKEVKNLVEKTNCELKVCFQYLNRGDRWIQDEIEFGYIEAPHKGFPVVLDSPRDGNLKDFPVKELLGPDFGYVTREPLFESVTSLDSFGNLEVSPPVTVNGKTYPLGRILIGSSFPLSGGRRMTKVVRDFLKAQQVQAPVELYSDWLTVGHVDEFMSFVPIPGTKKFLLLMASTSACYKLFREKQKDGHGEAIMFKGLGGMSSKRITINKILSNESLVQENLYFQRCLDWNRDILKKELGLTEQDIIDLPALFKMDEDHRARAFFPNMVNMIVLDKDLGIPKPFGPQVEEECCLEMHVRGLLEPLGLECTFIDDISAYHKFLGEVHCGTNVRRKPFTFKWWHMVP
Numbered stars: 1 amine (or outer) side, 2 acyl side, 3 side chain; on linkers, the order of the positions; unused ones are H or OH. Square brackets hold non-standard residues; d marks the D form. Ends that are not written are not given here. O(CA) = ornithine chloroamidine, N=C(CCl)NCCC[C@H](N[*:1])C(=O)[*:2]; Orn(fluoroacetimidoyl) = N=C(CF)NCCC[C@H](N)C(=O)O
Label TRUE when IC50 values (µM), ABAP PAD activity assay is strictly below 20 µM; otherwise label FALSE.

binder	class assignment
GD[Orn(fluoroacetimidoyl)]SG [G-D-O(FA)-S-G]	TRUE
TD[O(CA)]GS [T-D-O(CA)-G-S]	FALSE
GS[Orn(fluoroacetimidoyl)]DG [G-S-O(FA)-D-G]	TRUE
GD[O(CA)]SG [G-D-O(CA)-S-G]	FALSE
SS[Orn(fluoroacetimidoyl)]DG [S-S-O(FA)-D-G]	TRUE

Ask: Threshold test, IC50 values (µM), ABAP PAD activity assay < 20 µM: GS[O(CA)]DG [G-S-O(CA)-D-G]
Reply: FALSE

Ask: Lab note: IC50 values (µM), ABAP PAD activity assay threshold 20 µM. Does this binder come in strictly under it? SS[O(CA)]DG [S-S-O(CA)-D-G]
Reply: FALSE

Ask: Quick check: does TD[Orn(fluoroacetimidoyl)]GS [T-D-O(FA)-G-S] have IC50 values (µM), ABAP PAD activity assay under 20 µM?
Reply: TRUE
